The measured values listed here are drawn from patent US6358885B1.

- System: sorghum
- assay_summary: Test C preemergence/postemergence greenhouse plant response rating 0 to 100
- Type: in vivo, Sorghum bicolor
- study_conditions: POSTEMERGENCE, 125 g/ha, 0 to 100 scale
Record form. Attribute: Plant response rating, Sorghum. Fill in for each entry.
Answers are plain numbers.

Solved entries (count: 3):
C=CCN1C(=O)COc2cc(F)c(-c3nn4c(c3Br)CCCC4)cc21 [Compound 41] = 50
CCOC(=O)COc1cc(-c2nn3c(c2Cl)CCCC3)c(F)cc1Cl [Compound 42] = 70
C#CC(C)Oc1cc(-c2nn3c(c2Cl)CCCC3)c(F)cc1Cl (stereo not shown) [Compound 36] = 70

Here is the next item to consider.
Inquiry: Endpoint output: Plant response rating, Sorghum of CCOCOc1cc(-c2nn3c(c2Cl)CCCC3)c(F)cc1Cl [Compound 59] . Value?
Reply text: 70
